Source listed as patent US10806794B2.

- Test system: cynomolgus monkey hepatocytes
- assay-remarks: Metabolic stability in cynomolgus monkey hepatocytes
- Type: in vitro ADME
- experimental-parameters: 0.1 uM
quantity-kind: t1/2 (h)
Quick note: give the figure in h, leave out the unit.

INPUT: Entry under review: COCCOCCOCCOC(=O)NC(C(=O)NC(Cc1ccccc1)C(O)CN(Cc1ccc(-c2ccccn2)cc1)NC(=O)C(NC(=O)OC)C(C)(C)C)C(C)(C)C (stereo not shown) . Reported t1/2?
OUTPUT: 1.1

INPUT: Sample COCCOCCOCCOCCOCCOCCOCCNc1ccc(S(=O)(=O)N(CC(C)C)CC(O)[C@H](Cc2ccccc2)NC(=O)O[C@H]2CO[C@H]3OCC[C@H]32)cc1 (stereo partly shown) — what was its t1/2?
OUTPUT: 80.83
